Tested on: HEK293T cells
Protocol: Different DNAPK inhibitors on precise gene editing outcomes, Example 8
Assay Context: gINS + ssDNA, DNAPK inhibitor 0.625 μM
Field: HDR to indel ratio. Provide a value for each of the compounds that follow.
Answers are plain numbers.

Please review the following examples before continuing.
>  <Compound>
Cc1nccnc1C(O)c1ccc(F)c(-c2ncnc3cc(N4CCOCC4)ccc23)c1 (stereo not shown) [TLR1]

>  <Experimental System>
HEK293T cells

>  <HDR to indel ratio>
0.7

$$$$
>  <Compound>
Cc1cc2ncnn2cc1Nc1ncc2c(n1)n(C1CCOCC1)c(=O)n2C [AZD7648]

>  <Experimental System>
HEK293T cells

>  <HDR to indel ratio>
0.5

$$$$
>  <Compound>
[2H]c1nc(C)nc([2H])c1-c1cc(NC[C@@H](C)c2cccc3c(C(=O)NC)ccnc23)ncn1

>  <Experimental System>
HEK293T cells

>  <HDR to indel ratio>
0.5

$$$$

Now, please, on to the next compound.
Asked: Query the reported HDR to indel ratio for HEK293T cells; item: Cc1cc2ncnn2cc1Nc1ncc2c(n1)N(C1CCOCC1)CC(=O)N2C [TLR2]
Given back: 0.9

---

Field: HDR to indel ratio. Provide a value for each of the compounds that follow.
Tested on: HEK293T cells
Protocol: Different DNAPK inhibitors on precise gene editing outcomes, Example 8
Assay Context: gINS + ssDNA, DNAPK inhibitor 0.3125 μM
One number for each entry.

Please review the following examples before continuing.
>  <Compound>
[2H]c1nc(C)nc([2H])c1-c1cc(NC[C@@H](C)c2cccc3c(C(=O)NC)ccnc23)ncn1

>  <Assay Metric>
HDR to indel ratio

>  <Reported Measurement>
0.3

$$$$
>  <Compound>
Cc1cc2ncnn2cc1Nc1ncc2c(n1)N(C1CCOCC1)CC(=O)N2C

>  <Assay Metric>
HDR to indel ratio

>  <Reported Measurement>
0.6

$$$$

Would you mind listing HDR to indel ratio for each of the following compounds?
1. Cc1nccnc1C(O)c1ccc(F)c(-c2ncnc3cc(N4CCOCC4)ccc23)c1 (stereo not shown)
2. Cc1cc2ncnn2cc1Nc1ncc2c(n1)n(C1CCOCC1)c(=O)n2C

Given back:
0.4
0.3

---

Tested on: HEK293T cells
Protocol: Different DNAPK inhibitors on precise gene editing outcomes, Example 8
Assay Context: sgRNA CD34 (gINS) + ssDNA, DNAPK inhibitor 0.625 μM, 70 hours post-transfection
Assay Metric: MMEJ indels Mean
Numbers only.

Please review the following examples before continuing.
>  <Molecule>
Cc1cc2ncnn2cc1Nc1ncc2c(n1)N(C1CCOCC1)CC(=O)N2C [TLR2]

>  <MMEJ indels Mean>
17.1

$$$$
>  <Molecule>
Cc1cc2ncnn2cc1Nc1ncc2c(n1)n(C1CCOCC1)c(=O)n2C [AZD7648]

>  <MMEJ indels Mean>
17.4

$$$$
>  <Molecule>
[2H]c1nc(C)nc([2H])c1-c1cc(NC[C@@H](C)c2cccc3c(C(=O)NC)ccnc23)ncn1

>  <MMEJ indels Mean>
17.8

$$$$

Now, please, on to the next molecule.
Asked: Request the reported MMEJ indels Mean associated with Cc1nccnc1C(O)c1ccc(F)c(-c2ncnc3cc(N4CCOCC4)ccc23)c1 (stereo not shown) [TLR1]
Given back: 17.3

---

Test system: HEK293T cells
Protocol: Different DNAPK inhibitors on precise gene editing outcomes, Example 8;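 note: cells transfected with plasmids for SpCas9-EGFP, editing outcomes quantified from genomic DNA by deep targeted amplicon sequencing with bioinformatic analysis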
Assay Context: gINS + ssDNA, DNAPK inhibitor 10 μM, vs DMSO
Field: Precise KI fold increase. Provide a value for each of the compounds that follow.
Numbers only, in fold.

>  <Compound>
Cc1nccnc1C(O)c1ccc(F)c(-c2ncnc3cc(N4CCOCC4)ccc23)c1 (stereo not shown) [TLR1]

>  <Precise KI fold increase [fold]>
2.0

$$$$
>  <Compound>
Cc1cc2ncnn2cc1Nc1ncc2c(n1)N(C1CCOCC1)CC(=O)N2C [TLR2]

>  <Precise KI fold increase [fold]>
2.1

$$$$
>  <Compound>
Cc1cc2ncnn2cc1Nc1ncc2c(n1)n(C1CCOCC1)c(=O)n2C [AZD7648]

>  <Precise KI fold increase [fold]>
2.8

$$$$

Now, please, on to the next compound.
Asked: Request the reported Precise KI fold increase associated with [2H]c1nc(C)nc([2H])c1-c1cc(NC[C@@H](C)c2cccc3c(C(=O)NC)ccnc23)ncn1
Given back: 2.7
